Test: Cell Viability - LYMP2-001 (AID 921);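 also: cells exposed to compound for 24 h at 37 °C; nearly all actives have a fitted effect of over 70% in size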
Conditions: LYMP2-001 lymphoblastoid cell viability; series mostly up to 92.2 µM
Inconclusive results are not listed. Active and inactive are the calls of the source. Calls follow the shape of the dose curve; as a rule, active = well fitted cell-killing curve with a large enough effect; inconclusive = small, poorly fitted or top-dose-only effect; inactive = no such curve, though single readings can be large or run the other way.
Outcome codes: y (active), n (inactive)

molecule: Cc1ccc(O)cc1
className: n

molecule: CC(C)(c1ccc(O)cc1)c1ccc(O)cc1
className: n

molecule: O=C(c1ccccc1)c1ccccc1
className: n

molecule: C1=CC2C3C=CC(C3)C2C1 (stereo not drawn)
className: n

molecule: CCCCCCCCCCCCCCCC[n+]1ccccc1
className: y

molecule: OCc1c[nH]c2ccccc12
className: n

molecule: Oc1ccccc1
className: n

molecule: CCCC(=O)c1cc(O)c(O)cc1O
className: n

* * *

System: CRL-7250
Test: Cytotoxic Profiling of Annotated Libraries Using Quantitative High-Throughput Screening (AID 1296008); also: % is scaled to controls: 0 for no effect and ±100 for the full control effect; nearly all actives have a fitted effect of over 60% in size
Conditions: Five cell lines viability, CellTiter-Glo ATP luminescence, 48-72 h; stronger effect = lower value
Records with an inconclusive call do not appear.
assayEndpoint: max response (%)

compound: O=C(O)Cn1cnnn1
assayEndpoint: max response
measuredValue: -0.376

compound: CCCN(CCC)C(=O)C(CCC(=O)OCCCN1CCN(CCOC(=O)Cc2c(C)n(C(=O)c3ccc(Cl)cc3)c3ccc(OC)cc23)CC1)NC(=O)c1ccccc1 (configuration not stated)
assayEndpoint: max response
measuredValue: -6.96

compound: CCN(CC)C(=O)C1CN2CCc3cc(OC)c(OC)cc3C2CC1OC(C)=O (configuration not stated)
assayEndpoint: max response
measuredValue: -9.43

compound: C/C(=N/NC(=O)c1ccncc1)C(=O)O
assayEndpoint: max response
measuredValue: 0.746

compound: OCc1cccnc1
assayEndpoint: max response
measuredValue: -0.394

compound: C[C@@]12CCC[C@H]1[C@@H]1CC[C@H]3C[C@@H](O)CC[C@]3(C)[C@H]1CC2
assayEndpoint: max response
measuredValue: 2.58

compound: CN(C)C(=O)CNC(=O)Cc1ccccc1
assayEndpoint: max response
measuredValue: -7.63

compound: COC(=O)c1ccc(NC(C)=O)cc1OC
assayEndpoint: max response
measuredValue: -0.178

compound: O=C(CCCl)NCc1ccccc1
assayEndpoint: max response
measuredValue: -8.2

compound: O=C1Cc2cc(Cl)ccc2N1
assayEndpoint: max response
measuredValue: -11.6

compound: COc1ccc(/C(C)=C/C(=O)O)c(OC)c1
assayEndpoint: max response
measuredValue: 0.36

compound: CCN1CCN(c2cc(-c3ccc(F)cc3)c3c(n2)CCCCCC3)CC1
assayEndpoint: max response
measuredValue: 3.32

* * *

Assay: qHTS of pediatric cancer cell lines to identify multiple opportunities for drug repurposing: Primary screen for SK-N-MC cells (AID 1347093)
Details: SK-N-MC viability, CellTiter-Glo luminescence, 48 h; series mostly up to 46 µM
Records with an inconclusive call do not appear. The source made the active and inactive calls. The call rests on the fitted dose curve; in most records, active means well fitted cell-killing curve with a large enough effect; inconclusive means small, poorly fitted or top-dose-only effect; inactive means no such curve, though single readings can be large or run the other way.
Outcomes: active, inactive

molecule: CCCCCCCC(=O)[O-].CCCCCCCC(=O)[O-].[Zn+2]
className: inactive
--
molecule: Oc1ccccc1-c1nnco1
className: inactive
--
molecule: CCCCCCCCCCCCCCCCCCNC(=O)OC1CCN(C(=O)OC[C@H](COC(=O)N(Cc2cccc[n+]2CC)C(=O)c2ccccc2OC)OC)CC1
className: active
--
molecule: C[C@H]1C[C@H]2[C@@H]3CCC4=CC(=O)C=C[C@]4(C)[C@H]3C(=O)C[C@]2(C)[C@@]1(O)C(=O)CO
className: inactive
--
molecule: COC(=O)c1cc(Cl)ccc1OC
className: inactive
--
molecule: CCOc1ncc(F)c(=O)[nH]1
className: inactive
--
molecule: CCOC(=O)NNc1ccc(N(CC)CC(C)O)nn1 (configuration not stated)
className: inactive
--
molecule: C#CC(C)(CC)OC(=O)c1ccccc1C(=O)O (configuration not stated)
className: inactive
--
molecule: CC(=O)N[C@@H](CCC(N)=O)C(=O)O
className: inactive
--
molecule: O=C(O)c1ccccc1S
className: inactive
--
molecule: CN1[C@@H]2CC[C@H]1CC(NC(=O)n1c(=O)[nH]c3ccccc31)C2 (some centres not stated)
className: inactive
--
molecule: O=C1Cc2cc(Cl)ccc2N1
className: inactive
